test: Thermodynamic solubility of the polymorphic forms in water (shake flask technique, UV); format: physicochemical; details: pure water, 25 °C, water, thermodynamic from solid, over night at 25° C., triplicate

{"columns": ["COMPOUND", "solubility, µg/mL"],
 "data": [
  ["O=C(O)Cc1cccc(-c2cc(CCCCCCc3ccc(O[C@H]4O[C@H](CO)[C@@H](O)[C@H](O)[C@@H]4O)c(-c4cccc(CC(=O)O)c4)c3)ccc2O[C@H]2O[C@H](CO)[C@@H](O)[C@H](O)[C@@H]2O)c1 [FORM 1]", 22]
]}
